Here the recorded remaining at 8 h is given for each entry.
experiment: in vitro; details: both, human, plasma
Non-standard residues stand in square brackets, D forms with d. Residues, ends and D or L forms follow the SMILES beside them. NMeY = CN[C@@H](Cc1ccc(O)cc1)C(=O)O; NMeL = CN[C@@H](CC(C)C)C(=O)O; dNMeL = CN[C@H](CC(C)C)C(=O)O
Write the answer as a number in %, unit excluded.

Illustrative cases are given below, each with its answer.
CC(C)C[C@@H]1NC(=O)[C@@H](CC(C)C)N(C)C(=O)[C@H](CC(C)C)NC(=O)[C@H](Cc2ccc(O)cc2)NC(=O)[C@H]2CCCN2C(=O)[C@H](CC(C)C)NC1=O [10g] (cyclo(LL[dP]YL[dNMeL])) | 69
CC(C)C[C@@H]1NC(=O)[C@H](Cc2ccc(O)cc2)NC(=O)[C@H]2CCCN2C(=O)[C@H](CC(C)C)NC(=O)[C@H](CC(C)C)N(C)C(=O)[C@@H](CC(C)C)NC1=O [10h] (cyclo(L[dL][NMeL]L[dP]Y)) | 68
CC(C)C[C@@H]1NC(=O)[C@@H](CC(C)C)NC(=O)[C@H](CC(C)C)N(C)C(=O)[C@H](Cc2ccc(O)cc2)NC(=O)[C@H]2CCCN2C(=O)[C@H](CC(C)C)NC1=O [10k] (cyclo(LL[dP]Y[NMeL][dL])) | 57
CC(C)C[C@@H]1NC(=O)[C@@H](CC(C)C)NC(=O)[C@H](CC(C)C)NC(=O)[C@H](Cc2ccc(O)cc2)N(C)C(=O)[C@H]2CCCN2C(=O)[C@H](CC(C)C)NC1=O [10j] (cyclo(LL[dP][NMeY]L[dL])) | 56

Kindly review the next compound as well.
// query Find the recorded remaining at 8 h belonging to CC(C)C[C@@H]1NC(=O)[C@H](Cc2ccc(O)cc2)NC(=O)[C@H]2CCCN2C(=O)[C@H](CC(C)C)N(C)C(=O)[C@H](CC(C)C)NC(=O)[C@@H](CC(C)C)NC1=O [10i] (cyclo(L[NMeL][dP]YL[dL])) and report it.
// result 74

The values you see were collected from paper PMC10539501.
